Quick reference for pIC50 among some compounds
target: Cholinesterase (Mus musculus, UniProt Q03311); assay: Inhibition of mouse serum BChE after 1 hr by modified Ellman's colorimetric method
Sequence (Q03311 whole entry): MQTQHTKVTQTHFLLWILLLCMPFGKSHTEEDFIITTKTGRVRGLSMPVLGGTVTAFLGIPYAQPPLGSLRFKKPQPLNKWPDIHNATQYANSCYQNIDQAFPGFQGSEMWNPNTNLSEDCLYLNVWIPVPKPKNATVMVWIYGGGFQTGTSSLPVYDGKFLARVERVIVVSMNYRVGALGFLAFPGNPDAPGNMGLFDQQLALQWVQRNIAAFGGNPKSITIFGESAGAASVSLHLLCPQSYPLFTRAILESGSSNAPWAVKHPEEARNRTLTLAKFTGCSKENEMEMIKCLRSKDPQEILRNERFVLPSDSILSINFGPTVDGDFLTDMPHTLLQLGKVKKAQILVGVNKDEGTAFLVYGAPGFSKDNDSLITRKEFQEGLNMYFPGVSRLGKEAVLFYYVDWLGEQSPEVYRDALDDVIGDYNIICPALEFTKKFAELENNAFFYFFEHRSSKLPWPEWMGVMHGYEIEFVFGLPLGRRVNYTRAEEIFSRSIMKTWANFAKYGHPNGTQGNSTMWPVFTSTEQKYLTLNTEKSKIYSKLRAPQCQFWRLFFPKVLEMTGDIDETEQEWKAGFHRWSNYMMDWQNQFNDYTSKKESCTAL
pIC50: −log10 of the molar value.
QUANTITY_NAME: pIC50

• CCCCCCNC(=O)Oc1ccc2c(c1)[C@]1(C)CCN(CCc3ccccc3)[C@@H]1N2C = 7.85
• CCCCCCOc1ccc(NC(=O)Oc2ccc3c(c2)[C@]2(C)CCN(CCc4ccccc4)[C@@H]2N3C)cc1 = 5.85
• CC(C)c1ccc(NC(=O)Oc2ccc3c(c2)[C@]2(C)CCN(CCc4ccccc4)[C@@H]2N3C)cc1 [PHENETHYLCYMSERINE] = 6.27
• CN1c2ccc(OC(=O)Nc3ccc(C(C)(C)C)cc3)cc2[C@]2(C)CCN(CCc3ccccc3)[C@H]12 = 6.37
• CN1c2ccc(OC(=O)Nc3ccc4ccccc4c3)cc2[C@]2(C)CCN(CCc3ccccc3)[C@H]12 = 6.24
• CNC(=O)Oc1ccc2c(c1)[C@]1(C)CCN(CCc3ccccc3)[C@@H]1N2C = 8.00
• CN1c2ccc(OC(=O)Nc3ccc(Oc4ccccc4)cc3)cc2[C@]2(C)CCN(CCc3ccccc3)[C@H]12 = 5.70
• CN1c2ccc(OC(=O)Nc3ccc(Cl)cc3)cc2[C@]2(C)CCN(CCc3ccccc3)[C@H]12 = 6.43
• COc1ccc(NC(=O)Oc2ccc3c(c2)[C@]2(C)CCN(CCc4ccccc4)[C@@H]2N3C)cc1OC = 7.01
• CN1c2ccc(OC(=O)NC3CCCCC3)cc2[C@]2(C)CCN(CCc3ccccc3)[C@H]12 = 7.66
• CN1c2ccc(OC(=O)Nc3ccc4c(c3)OCO4)cc2[C@]2(C)CCN(CCc3ccccc3)[C@H]12 = 7.00
• CCCCc1ccc(NC(=O)Oc2ccc3c(c2)[C@]2(C)CCN(CCc4ccccc4)[C@@H]2N3C)cc1 = 6.01
• CN1c2ccc(OC(=O)NCC3CCCCC3)cc2[C@]2(C)CCN(CCc3ccccc3)[C@H]12 = 8.74
• COc1ccc(NC(=O)Oc2ccc3c(c2)[C@]2(C)CCN(CCc4ccccc4)[C@@H]2N3C)cc1 = 7.08
• CN1c2ccc(OC(=O)NCc3ccccc3)cc2[C@]2(C)CCN(CCc3ccccc3)[C@H]12 = 8.18
• CNC(=O)Oc1ccc2c(c1)[C@]1(C)CCN(C)[C@@H]1N2C [PHYSOSTIGMINE] = 6.55
• CN1c2ccc(OC(=O)NCCc3ccccc3)cc2[C@]2(C)CCN(CCc3ccccc3)[C@H]12 = 7.80
• CN1c2ccc(OC(=O)Nc3ccc([N+](=O)[O-])cc3)cc2[C@]2(C)CCN(CCc3ccccc3)[C@H]12 = 5.17

Data provenance: ChEMBL document CHEMBL1154942
